target: PTK2 (Homo sapiens, UniProt Q05397); test: PTK2 Enzyme Test (DELFIA assay, poly-Glu-Tyr substrate); conditions: active PTK2 enzyme, 50 μM ATP in ATP Mix, 1 h pre-incubation
readout: IC50 (nM)
Please respond with the number in nM and leave the unit unwritten.

Consider the reported IC50 for these compounds:
>  <compound>
COc1cc(C(=O)NC2CCN(c3ccccc3)CC2)ccc1Nc1ncc(C(F)(F)F)c(NCc2ccc(C)cc2N(C)S(C)(=O)=O)n1 [Example 55]

>  <units>
nM

>  <IC50>
11

$$$$
>  <compound>
COc1cc(C(=O)NC2CC(N3CCOCC3)C2)ccc1Nc1ncc(C(F)(F)F)c(NCc2ccc(C)cc2N(C)S(C)(=O)=O)n1 (stereo not shown) [Example 71]

>  <units>
nM

>  <IC50>
3

$$$$
>  <compound>
COc1ccc(CNc2nc(Nc3ccc(NC(C)=O)c(Cl)c3)ncc2C(F)(F)F)c(N(C)S(C)(=O)=O)c1 [Example 105]

>  <units>
nM

>  <IC50>
2

$$$$
>  <compound>
COc1ccc(CNc2nc(Nc3cc(F)c(C(=O)NC(C)(C)C)cc3OC)ncc2C(F)(F)F)c(N(C)S(C)(=O)=O)c1 [Example 128]

>  <units>
nM

>  <IC50>
22

$$$$

Prompt: If you can, please state the reported IC50 value of COc1cc(CN(C)C)ccc1Nc1ncc(C(F)(F)F)c(NCc2ccc(C)cc2N(C)S(C)(=O)=O)n1 [Example 3] .
Response: 1

Prompt: What do you get for COc1cc(C(=O)N[C@@H]2CCCN(C3CCC3)C2)ccc1Nc1ncc(C(F)(F)F)c(NCc2ccc(C)cc2N(C)S(C)(=O)=O)n1 [Example 86] ?
Response: 3

Prompt: What do you get for CCOCCNC(=O)c1ccc(Nc2ncc(C(F)(F)F)c(NCc3ccc(C)cc3N(C)S(C)(=O)=O)n2)c(OC)c1 [Example 21] ?
Response: 5

Prompt: What do you get for COc1cc(C(=O)NC2CC(N3CCN(CC4CC4)CC3)C2)ccc1Nc1ncc(C(F)(F)F)c(NCc2ccc(C)cc2N(C)S(C)(=O)=O)n1 (stereo not shown) [Example 97] ?
Response: 3

Prompt: What do you get for COc1cc(C(=O)NC2CCN(C)CC2)c(F)cc1Nc1ncc(C(F)(F)F)c(NCc2ccc(Cl)cc2N(C)S(C)(=O)=O)n1 [Example 90] ?
Response: 1

Prompt: What do you get for COc1cc(C(=O)NC2CCOC2)ccc1Nc1ncc(C(F)(F)F)c(NCc2ccc(C)cc2N(C)S(C)(=O)=O)n1 (stereo not shown) [Example 64] ?
Response: 3

###

target: PTK2-phosphorylation at tyrosine 397 (pY397) (Homo sapiens); construct: endogenous in cells; experiment: Phospho-PTK2 (pY397) Assay in PC-3 cells; conditions: PC-3 prostate carcinoma cells, 2 h incubation; read-out: PC3pPTK2 Y397 EC50
Sequence (Q05397 whole entry): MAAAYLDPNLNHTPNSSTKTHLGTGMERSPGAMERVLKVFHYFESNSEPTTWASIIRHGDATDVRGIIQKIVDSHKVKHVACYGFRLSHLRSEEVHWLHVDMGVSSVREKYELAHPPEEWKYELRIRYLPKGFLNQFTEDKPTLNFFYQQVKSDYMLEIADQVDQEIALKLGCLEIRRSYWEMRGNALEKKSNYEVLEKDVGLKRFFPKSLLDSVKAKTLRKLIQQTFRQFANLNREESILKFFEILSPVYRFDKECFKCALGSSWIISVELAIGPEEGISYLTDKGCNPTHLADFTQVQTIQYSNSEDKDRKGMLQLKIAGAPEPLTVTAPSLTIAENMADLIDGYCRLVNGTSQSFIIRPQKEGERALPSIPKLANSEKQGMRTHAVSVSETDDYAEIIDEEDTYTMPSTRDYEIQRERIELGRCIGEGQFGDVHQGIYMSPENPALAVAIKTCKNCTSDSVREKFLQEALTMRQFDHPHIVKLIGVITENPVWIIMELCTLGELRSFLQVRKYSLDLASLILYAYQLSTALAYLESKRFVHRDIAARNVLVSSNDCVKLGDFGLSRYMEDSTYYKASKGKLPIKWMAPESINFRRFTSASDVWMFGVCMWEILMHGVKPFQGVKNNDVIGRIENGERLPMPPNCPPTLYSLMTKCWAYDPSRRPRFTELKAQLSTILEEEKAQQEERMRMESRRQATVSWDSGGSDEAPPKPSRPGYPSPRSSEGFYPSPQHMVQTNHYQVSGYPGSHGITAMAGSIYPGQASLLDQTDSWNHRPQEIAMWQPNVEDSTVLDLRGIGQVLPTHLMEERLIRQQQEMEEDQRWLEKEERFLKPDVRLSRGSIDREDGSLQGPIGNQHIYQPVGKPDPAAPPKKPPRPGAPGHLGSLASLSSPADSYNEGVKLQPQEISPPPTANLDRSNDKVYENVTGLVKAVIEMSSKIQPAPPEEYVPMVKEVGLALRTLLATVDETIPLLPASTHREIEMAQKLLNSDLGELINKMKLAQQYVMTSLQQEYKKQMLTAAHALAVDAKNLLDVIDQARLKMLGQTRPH
readout: EC50 (nM)
Please respond with the number in nM and leave the unit unwritten.

>  <cpd.smiles>
CCN(CC)CCNC(=O)c1ccc(Nc2ncc(C(F)(F)F)c(NCc3ccc(C)cc3N(C)S(C)(=O)=O)n2)c(OC)c1

>  <units>
nM

>  <observed>
0.16

$$$$
>  <cpd.smiles>
CCc1cc(C(=O)NOC)ccc1Nc1ncc(C(F)(F)F)c(NCc2ccc(C)cc2N(C)S(C)(=O)=O)n1

>  <units>
nM

>  <observed>
3

$$$$
>  <cpd.smiles>
CNCc1ccc(Nc2ncc(C(F)(F)F)c(NCc3ccc(C)cc3N(C)S(C)(=O)=O)n2)c(OC)c1

>  <units>
nM

>  <observed>
0.24

$$$$
>  <cpd.smiles>
CC(=O)Nc1ccc(Nc2ncc(C(F)(F)F)c(NCc3ccc(C)cc3N(C)S(C)(=O)=O)n2)cc1C

>  <units>
nM

>  <observed>
3

$$$$
>  <cpd.smiles>
CNC(=O)c1ccc(Nc2ncc(C(F)(F)F)c(NCc3ccc(C)cc3N(C)S(C)(=O)=O)n2)c(OC)c1

>  <units>
nM

>  <observed>
0.74

$$$$

Prompt: If you can, please state the reported EC50 value of COc1cc(C(=O)N[C@@H]2CCN(C)C[C@@H]2F)ccc1Nc1ncc(C(F)(F)F)c(NCc2ccc(C)cc2N(C)S(C)(=O)=O)n1 .
Response: 2

Prompt: What do you get for Cc1ccc(CNc2nc(Nc3ccc(C(=O)N[C@H]4CC[C@H](N5CCOCC5)CC4)cc3F)ncc2C(F)(F)F)c(N(C)S(C)(=O)=O)c1 ?
Response: 2
